Biological target: NAD-dependent protein deacetylase sirtuin-2 (Homo sapiens, UniProt Q8IXJ6)
Sequence (Q8IXJ6 whole entry): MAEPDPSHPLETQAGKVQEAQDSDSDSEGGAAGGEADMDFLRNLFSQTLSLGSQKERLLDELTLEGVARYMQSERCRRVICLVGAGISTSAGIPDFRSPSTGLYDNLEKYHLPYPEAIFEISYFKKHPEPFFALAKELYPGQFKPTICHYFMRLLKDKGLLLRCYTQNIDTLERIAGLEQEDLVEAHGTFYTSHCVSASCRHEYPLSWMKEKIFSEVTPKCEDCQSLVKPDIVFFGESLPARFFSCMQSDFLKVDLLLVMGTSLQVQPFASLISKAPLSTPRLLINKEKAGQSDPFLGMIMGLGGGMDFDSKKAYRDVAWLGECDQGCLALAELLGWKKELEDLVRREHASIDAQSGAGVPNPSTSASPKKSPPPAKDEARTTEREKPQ
Assay: Inhibition of human recombinant GST-fused SIRT2 expressed in Escherichia coli DH5-alpha using [3H]acetic acid labeled MPSDKTIGG as substrate after overnight incubation by liquid scintillation counting method
OUTCOME MEASURE: IC50 (µM)

>>> df
                              smiles_record                          target_or_system  readout_unit  experimental_result
0  CC(C)=CCC/C(C)=C/C[C@@H]1C[C@]2(CC=C(C)C)C(=O)[C@@](CC=C(C)C)(C(=O)C(C(=O)c3ccc(O)c(O)c3)=C2O)[C@@]1(C)CCC=C(C)C  NAD-dependent protein deacetylase sirtuin-2 (Homo sapiens, UniProt Q8IXJ6)            µM                   22
